target: T1, RSV-A F (RSV A); test: BLI
T1 construct: also called RSV F A
pKd: −log10 of the molar value.
In this section we review reported pKd values for a set of binders.
quantity-measured: pKd

binder	result-value
MPK201-v1.2 (antibody, V domains shown) VH: EVQLVQSGAEVKKPGESLKISCQGSGYSFINYWIGWVRQKPGKGLEWMGIIYPFDSETKYSPSFQGHVTFSADKSINTAYVQWSSLRASDTAMYYCARFTFGLAVTTADVSGEGQAFEIWGQGTMVTVSS VL: QIVMMQSPATLSVSPGERATLSCRASQSVAGNLAWYQQRPGQAPRLLVYGASTRASGVPARFSGSGSETEFTLTISSLQSEDFAVYYCHHYSDLPQAFGQGTRLDIK	9.68
MPK176-v4.3 (antibody, V domains shown) VH: QVQLVQSGAEVKKPGASVRVSCKASGYTLTAYGISWVRQAPGQGLEWMGWISPKHGSTHYAQRFQGRVTMTTDTSTSTAYMELRSLRPDDTAVYFCAREGVDIMAVPWYFDYWGQGTLVAVSS VL: SYVLTQPPSVSVAPGQTARISCGGNNIGSKSVHWYQQKPGQAPVVVVYDDSKRPSGIPERFSGSNSGNTATLTISGVEAGDEADYFCQVWDSATDHWVFGGGTKLTVL	9.86
MPK176-v1.3 (antibody, V domains shown) VH: QVQLVQSGAEVKKPGASVRVSCKASGYTLTAYGISWVRQAPGQGLEWMGWISPKHGNTHYAQRFQGRVTMTTDTSTSTAYMELRSLRPDDTAVYFCAREGVDIMAVPWYFDYWGQGTLVAVSS VL: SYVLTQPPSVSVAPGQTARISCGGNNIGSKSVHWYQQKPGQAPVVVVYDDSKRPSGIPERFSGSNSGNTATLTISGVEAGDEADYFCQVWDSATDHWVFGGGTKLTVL	9.87
MPK65-v2-v3.1 (antibody, V domains shown) VH: QVPLVQSGAEVKKPGESLKISCKGSGYSFISYWIGWVRQMPGKGLEWMGVIYPFDADTKYSPSFQGHVTISADKSSNTAYVQWSSLKASDTAMYYCARFTFGIAVVTDDVSGEGQAFEIWGQGTMVTVSS VL: EIVMMQSPATLSVSPGERATLSCRASQSVAGNLAWYQQRPGQAPRLLIYGASTRATGVPARFSGSGSETEFTLTISSLQSEDFAVYYCHQYSNWPQAFGQGTRLDIK	9.72
